experiment: Partition coefficient (logP); format: physicochemical; details: octanol/water
REPORTED METRIC: logP

Sample records with logP:
- CC(C)(OCc1coc(-c2ccc(Cl)cc2)n1)C(=O)O: 0.23
- CC(C)(OCc1ccc(-c2ccc(Cl)cc2)nn1)C(=O)O: -0.15
- CC(C)(OCc1cc2cc(Cl)ccc2o1)C(=O)O: -0.57

I = CC(C)(OCc1coc2ccc(Cl)cc12)C(=O)O
II = CC(C)(OCc1cc(-c2ccc(Cl)cc2)[nH]n1)C(=O)O
III = CC(C)(OCc1nc(-c2ccc(Cl)cc2)co1)C(=O)O
IV = CC(C)(OCc1cccc(-c2ccc(Cl)cc2)n1)C(=O)O
Request: Rank the items in ascending order with respect to logP. # answer = labels listed in requested order
Result: I, III, II, IV

I = CC(C)(OCc1cc(-c2ccc(Cl)cc2)no1)C(=O)O
II = Cn1cc(-c2ccc(Cl)cc2)nc1COC(C)(C)C(=O)O
Request: I'm curious whether I or II has the smaller logP number. Which is it? Select an item and report its label.
Result: II
(II: 0.08, I: 0.36)

A = CC(C)(OCc1ccn(-c2ccc(Cl)cc2)n1)C(=O)O
B = Cc1nc(-c2ccc(Cl)cc2)oc1COC(C)(C)C(=O)O [ROMAZARIT]
Request: Task for the reader: decide whether A or B has the larger logP. Select an item and report its label.
Result: B

1 = CC(C)(OCc1csc(-c2ccc(Cl)cc2)n1)C(=O)O
2 = CC(C)(OCc1ncc(-c2ccc(Cl)cc2)o1)C(=O)O
Request: I'm curious whether 1 or 2 has the smaller logP number. Which is it? Select an item and report its label.
Result: 2
(2: 0.15, 1: 0.66)

----------
test: Inhibition of prostaglandin synthetase in sheep seminal vesicle; design: species or system Ovis aries
REPORTED METRIC: pIC50
Note on units: pIC50 is unitless, being -log10 of a concentration expressed in mol/L.

Request: For "COc1ccc2c(c1)c(CC(=O)O)c(C)n2C(=O)c1ccc(Cl)cc1" , write its pIC50.
Result: 5.92

----------
tested on: Rattus norvegicus; assay: Hepatic effect assessed by increase in catalase levels after 14 days of dosing at 100 mg/kg orally.; assay type: functional
REPORTED METRIC: Change (%)
Form entry: value (%) — number only.

Sample records with Change:
* CC(C)(OCc1cnc(-c2ccc(Cl)cc2)o1)C(=O)O | 11
* CC(C)(OCc1nc(-c2ccc(Cl)cc2)co1)C(=O)O | 68
* CC(C)(OCc1coc(-c2ccc(Cl)cc2)n1)C(=O)O | 52
* CC(C)(OCc1cc(-c2ccc(Cl)cc2)on1)C(=O)O | 140
* CC(C)(OCc1ncc(-c2ccc(Cl)cc2)o1)C(=O)O | -10
* Cc1oc(-c2ccc(Cl)cc2)nc1COC(C)(C)C(=O)O | 60

Request: Fill in Change for "CC(C)(OCc1cc(-c2ccc(Cl)cc2)no1)C(=O)O" tested with Rattus norvegicus.
Result: 73

Request: Fill in Change for "Cc1nc(-c2ccc(Cl)cc2)oc1COC(C)(C)C(=O)O" tested with Rattus norvegicus.
Result: 19

----------
The following compounds are shown together with reported inhibition in vivo at 100 mg/kg values.
test system: Rattus norvegicus; assay: Radiographic change was judged in the area of the tarsus region, using an arbitrary scoring system upon termination of the test (14 days dosing of 100 mg/kg) in a model of type II collagen arthritis in the rat.; assay type: functional; details: 336 h
Form entry: value (%) — number only.

• CC(C)(OCc1cc(-c2ccc(Cl)cc2)no1)C(=O)O = 47
• CC(C)(OCc1coc(-c2ccc(Cl)cc2)n1)C(=O)O = 44
• CC(C)(OCc1cc(-c2ccc(Cl)cc2)on1)C(=O)O = 42
• CC(C)(OCc1nc(-c2ccc(Cl)cc2)co1)C(=O)O = 39

Request: Fill in inhibition in vivo at 100 mg/kg for "CC(C)(OCc1cnc(-c2ccc(Cl)cc2)o1)C(=O)O" tested with Rattus norvegicus.
Result: 41

Request: Fill in inhibition in vivo at 100 mg/kg for "Cc1oc(-c2ccc(Cl)cc2)nc1COC(C)(C)C(=O)O" tested with Rattus norvegicus.
Result: 54

Request: Fill in inhibition in vivo at 100 mg/kg for "CC(C)(OCc1ncc(-c2ccc(Cl)cc2)o1)C(=O)O" tested with Rattus norvegicus.
Result: 24

----------
tested on: Rattus norvegicus; assay: Radiographic change was judged in the area of the talus joint, using an arbitrary scoring system upon termination of the test (14 days dosing of 100 mg/kg) in a model of type II collagen arthritis in the rat.; type: functional; conditions: 336 h
REPORTED METRIC: inhibition in vivo at 100 mg/kg (%)
Form entry: value (%) — number only.

• CC(C)(OCc1coc(-c2ccc(Cl)cc2)n1)C(=O)O = 59

Request: For "Cc1oc(-c2ccc(Cl)cc2)nc1COC(C)(C)C(=O)O" , write its inhibition in vivo at 100 mg/kg.
Result: 65

Request: For "CC(C)(OCc1cnc(-c2ccc(Cl)cc2)o1)C(=O)O" , write its inhibition in vivo at 100 mg/kg.
Result: 42

Request: For "CC(C)(OCc1cc(-c2ccc(Cl)cc2)no1)C(=O)O" , write its inhibition in vivo at 100 mg/kg.
Result: 60

----------
species on record: Homo sapiens; test: Inhibition of human PGE-2 production.; assay type: functional
REPORTED METRIC: IC50

Request: For "Cc1nc(-c2ccc(Cl)cc2)oc1COC(C)(C)C(=O)O" , write its IC50.
Result: > 400 µM

----------
experiment: Partition coefficient (logP); format: physicochemical; details: octanol/water
REPORTED METRIC: logP

* CC(C)(OCc1scnc1-c1ccc(Cl)cc1)C(=O)O | 0.23

a = CC(C)(OCc1cc(-c2ccc(Cl)cc2)on1)C(=O)O
b = CC(C)(OCc1cnc(-c2ccc(Cl)cc2)o1)C(=O)O
Request: Task for the reader: decide whether a or b has the larger logP. Select an item and report its label.
Result: a
(a: 0.46, b: 0.11)

----------
The following molecules are shown together with reported inhibition in vivo at 100 mg/kg values.
tested on: Rattus norvegicus; experiment: Radiographic change was judged in the area of the talus joint, using an arbitrary scoring system upon termination of the test (14 days dosing of 100 mg/kg) in a model of type II collagen arthritis in the rat.; format: functional; conditions: 336 h
Form entry: value (%) — number only.

Sample records with inhibition in vivo at 100 mg/kg:
* CC(C)(OCc1nc(-c2ccc(Cl)cc2)co1)C(=O)O | 63
* CC(C)(OCc1cc(-c2ccc(Cl)cc2)on1)C(=O)O | 24

Please look at the following molecule next.
Request: For "CC(C)(OCc1ncc(-c2ccc(Cl)cc2)o1)C(=O)O" , write its inhibition in vivo at 100 mg/kg.
Result: 36

----------
assay: Partition coefficient (logP); assay type: physicochemical; settings: octanol/water
REPORTED METRIC: logP

Sample records with logP:
* CC(C)(OCc1ccc(-c2ccc(Cl)cc2)cc1)C(=O)O | 1.52
* CC(C)(OCc1cnn(-c2ccc(Cl)cc2)c1)C(=O)O | 0.04

1 = Cc1oc(-c2ccc(Cl)cc2)nc1COC(C)(C)C(=O)O
2 = CC(C)(OCc1ncsc1-c1ccc(Cl)cc1)C(=O)O
Request: I'm curious whether 1 or 2 has the smaller logP number. Which is it? Select an item and report its label.
Result: 2
